target: CYP3A4 (Homo sapiens, UniProt P08684); experiment: Inhibition of CYP3A4 (unknown origin) assessed as residual activity at 50 uM incubated for 5 to 15 mins in presence of ketoconazole; type: ADME; conditions: with ketoconazole, time 5-15 min, read-out: Activity
Sequence (P08684 whole entry): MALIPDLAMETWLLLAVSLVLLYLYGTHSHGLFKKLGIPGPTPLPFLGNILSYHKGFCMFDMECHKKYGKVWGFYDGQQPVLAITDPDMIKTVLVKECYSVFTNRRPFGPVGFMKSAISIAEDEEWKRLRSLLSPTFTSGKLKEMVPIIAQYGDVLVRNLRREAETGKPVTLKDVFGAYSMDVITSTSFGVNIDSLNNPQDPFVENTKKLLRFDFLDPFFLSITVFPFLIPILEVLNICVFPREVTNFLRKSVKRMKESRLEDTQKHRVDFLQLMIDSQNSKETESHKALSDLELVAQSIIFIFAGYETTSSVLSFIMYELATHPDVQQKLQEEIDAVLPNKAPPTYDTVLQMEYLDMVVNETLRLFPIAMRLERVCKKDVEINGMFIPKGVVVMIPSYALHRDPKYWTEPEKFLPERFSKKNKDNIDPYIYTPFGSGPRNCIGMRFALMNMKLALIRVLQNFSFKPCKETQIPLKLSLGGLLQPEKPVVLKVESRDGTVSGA
endpoint: activity at 50 µM (%)
The answer is to be given in %; state only the numeric part.

Entry COc1ccc2c(c[n+](C)c3c4cc5c(cc4ccc23)OCO5)c1OC.[Cl-] [CHELERYTHRINE CHLORIDE] , CYP3A4 (Homo sapiens, UniProt P08684) data, activity at 50 µM value: 50

* * *

target: CYP2C19 (Homo sapiens, UniProt P33261); assay: Inhibition of human CYP2C19 assessed as remaining activity at 50 uM using omeprazole as substrate preincubated for 3 mins followed by substrate addition and measured upto 15 mins by LC-MS/MS analysis; type: ADME; conditions: probe omeprazole, time < 18 min, read-out: Activity
Sequence (P33261 whole entry): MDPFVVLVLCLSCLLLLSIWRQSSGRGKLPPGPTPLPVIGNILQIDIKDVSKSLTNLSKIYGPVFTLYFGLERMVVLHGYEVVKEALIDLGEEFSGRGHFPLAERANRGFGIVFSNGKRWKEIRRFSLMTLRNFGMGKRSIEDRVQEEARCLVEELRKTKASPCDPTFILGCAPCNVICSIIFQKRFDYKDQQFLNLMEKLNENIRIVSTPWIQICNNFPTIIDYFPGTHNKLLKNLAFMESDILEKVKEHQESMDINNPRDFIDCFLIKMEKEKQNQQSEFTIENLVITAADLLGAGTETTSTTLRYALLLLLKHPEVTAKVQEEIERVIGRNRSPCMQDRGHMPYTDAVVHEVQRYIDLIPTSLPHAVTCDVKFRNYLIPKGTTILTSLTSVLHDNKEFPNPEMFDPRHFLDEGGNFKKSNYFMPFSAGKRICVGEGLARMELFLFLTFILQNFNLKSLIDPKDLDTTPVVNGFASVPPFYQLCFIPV
endpoint: activity at 0.25 h, 50 µM

CYP2C19 (Homo sapiens, UniProt P33261) assay, compound COc1ccc2c(c[n+](C)c3c4cc5c(cc4ccc23)OCO5)c1OC.[Cl-] [CHELERYTHRINE CHLORIDE] , recorded activity at 0.25 h, 50 µM = > 50%

* * *

target: UniProtKB P20815; assay: Inhibition of human CYP3A5 assessed as remaining activity at 50 uM using testosterone as substrate preincubated for 3 mins followed by substrate addition and measured upto 15 mins by LC-MS/MS analysis; assay type: ADME; conditions: probe testosterone, time < 18 min, read-out: Activity
Sequence (P20815 whole entry): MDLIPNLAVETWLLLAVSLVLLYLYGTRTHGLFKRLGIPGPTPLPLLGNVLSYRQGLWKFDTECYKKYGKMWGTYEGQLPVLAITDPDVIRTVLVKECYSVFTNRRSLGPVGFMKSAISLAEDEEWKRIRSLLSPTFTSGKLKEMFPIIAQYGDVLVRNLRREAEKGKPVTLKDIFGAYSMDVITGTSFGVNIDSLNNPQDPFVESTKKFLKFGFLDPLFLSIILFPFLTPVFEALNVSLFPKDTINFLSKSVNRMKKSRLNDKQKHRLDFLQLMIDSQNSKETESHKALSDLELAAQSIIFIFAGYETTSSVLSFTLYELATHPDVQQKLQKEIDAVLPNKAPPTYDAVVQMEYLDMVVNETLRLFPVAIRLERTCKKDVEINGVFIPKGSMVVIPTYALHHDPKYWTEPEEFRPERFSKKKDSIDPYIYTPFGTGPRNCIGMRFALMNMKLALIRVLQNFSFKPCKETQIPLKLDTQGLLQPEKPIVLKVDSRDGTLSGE
endpoint: activity at 0.25 h, 50 µM

response.value for COc1ccc2c(c[n+](C)c3c4cc5c(cc4ccc23)OCO5)c1OC.[Cl-] [CHELERYTHRINE CHLORIDE] (field: activity at 0.25 h, 50 µM) = > 50%

* * *

target: CYP2A6 (Homo sapiens, UniProt P11509); test: Inhibition of human CYP2A6 assessed as remaining activity at 50 uM using coumarin as substrate preincubated for 3 mins followed by substrate addition and measured upto 15 mins by LC-MS/MS analysis; type: ADME; details: probe coumarin, time < 18 min, read-out: Activity
Sequence (P11509 whole entry): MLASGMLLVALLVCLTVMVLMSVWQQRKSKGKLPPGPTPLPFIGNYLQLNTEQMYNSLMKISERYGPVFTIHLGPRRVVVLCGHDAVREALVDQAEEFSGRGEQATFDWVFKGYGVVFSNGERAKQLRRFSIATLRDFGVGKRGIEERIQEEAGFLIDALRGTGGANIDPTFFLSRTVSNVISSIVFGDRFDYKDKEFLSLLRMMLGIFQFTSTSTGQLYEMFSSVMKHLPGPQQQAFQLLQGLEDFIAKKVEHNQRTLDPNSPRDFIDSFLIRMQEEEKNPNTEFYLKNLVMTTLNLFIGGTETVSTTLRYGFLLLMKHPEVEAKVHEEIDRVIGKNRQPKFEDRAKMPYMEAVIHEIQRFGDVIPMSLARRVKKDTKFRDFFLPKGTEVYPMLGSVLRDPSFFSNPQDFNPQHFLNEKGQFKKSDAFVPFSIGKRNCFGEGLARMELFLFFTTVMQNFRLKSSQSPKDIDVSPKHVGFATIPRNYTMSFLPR
endpoint: activity at 0.25 h, 50 µM

The measured activity at 0.25 h, 50 µM associated with COc1ccc2c(c[n+](C)c3c4cc5c(cc4ccc23)OCO5)c1OC.[Cl-] [CHELERYTHRINE CHLORIDE] reads > 50%

* * *

target: UniProt:P08684; assay: Inhibition of CYP3A4 (unknown origin) assessed as remaining activity at 50 uM measured 15 mins before dialysis (reference value: 87.2 +/- 2.3 %); format: ADME; details: read-out: Activity
endpoint: activity at 0.25 h, 50 µM

Input COc1ccc2c(c[n+](C)c3c4cc5c(cc4ccc23)OCO5)c1OC.[Cl-] [CHELERYTHRINE CHLORIDE] . Output activity at 0.25 h, 50 µM: 43.8%

* * *

target: CYP3A4 (Homo sapiens); experiment: Inhibition of CYP3A4 (unknown origin) at 50 uM incubated for 15 mins by LC-MS/MS analysis; format: ADME
endpoint: inhibition at 0.25 h, 50 µM (%)
The reply should contain only the number, in %.

Record COc1ccc2c(c[n+](C)c3c4cc5c(cc4ccc23)OCO5)c1OC.[Cl-] [CHELERYTHRINE CHLORIDE] . Reported inhibition at 0.25 h, 50 µM: 75

* * *

target: CYP2C9 (Homo sapiens); assay: Inhibition of human CYP2C9 assessed as remaining activity at 50 uM using diclofenac sodium as substrate preincubated for 3 mins followed by substrate addition and measured upto 15 mins by LC-MS/MS analysis; format: ADME; conditions: probe diclofenac sodium, time < 18 min, read-out: Activity
Sequence (P11712 whole entry): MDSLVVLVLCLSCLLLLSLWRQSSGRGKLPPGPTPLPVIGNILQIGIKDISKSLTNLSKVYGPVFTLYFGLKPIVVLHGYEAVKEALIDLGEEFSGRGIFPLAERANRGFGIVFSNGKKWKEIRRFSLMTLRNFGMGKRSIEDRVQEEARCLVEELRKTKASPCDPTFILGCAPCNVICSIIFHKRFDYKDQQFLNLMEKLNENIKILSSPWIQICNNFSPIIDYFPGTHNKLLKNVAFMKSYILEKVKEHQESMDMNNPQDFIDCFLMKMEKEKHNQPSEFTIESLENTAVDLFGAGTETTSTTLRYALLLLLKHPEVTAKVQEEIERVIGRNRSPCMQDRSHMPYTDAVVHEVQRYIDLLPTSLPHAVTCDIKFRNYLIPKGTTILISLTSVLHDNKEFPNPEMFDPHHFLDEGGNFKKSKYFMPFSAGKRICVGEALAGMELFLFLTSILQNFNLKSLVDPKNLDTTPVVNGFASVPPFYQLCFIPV
endpoint: activity at 0.25 h, 50 µM

Please fill in: activity at 0.25 h, 50 µM reported for COc1ccc2c(c[n+](C)c3c4cc5c(cc4ccc23)OCO5)c1OC.[Cl-] [CHELERYTHRINE CHLORIDE] = > 50%

* * *

biological target: CYP3A4 (Homo sapiens); test: Inhibition of CYP3A4 (unknown origin) assessed as remaining activity at 50 uM incubated for 15 mins (reference value: 85 +/- 3.4%); format: ADME; conditions: read-out: Activity
endpoint: activity at 0.25 h, 50 µM (%)
The figure you give is taken to be in %; do not add the unit.

Noted activity at 0.25 h, 50 µM for COc1ccc2c(c[n+](C)c3c4cc5c(cc4ccc23)OCO5)c1OC.[Cl-] [CHELERYTHRINE CHLORIDE] , tested on CYP3A4 (Homo sapiens): 26

* * *

biological target: CYP3A4 (Homo sapiens, UniProt P08684); test: Inhibition of CYP3A4 (unknown origin) assessed as remaining activity at 50 uM measured 15 mins after dialysis (reference value: 53.8 +/- 2.9 %); type: ADME; conditions: read-out: Activity
endpoint: activity at 0.25 h, 50 µM (%)
// note: answer is a bare numeric in %

Looking up COc1ccc2c(c[n+](C)c3c4cc5c(cc4ccc23)OCO5)c1OC.[Cl-] [CHELERYTHRINE CHLORIDE] , I found its activity at 0.25 h, 50 µM recorded as 25.1

* * *

biological target: CYP2B6 (Homo sapiens, UniProt P20813); test: Inhibition of human CYP2B6 assessed as remaining activity at 50 uM using bupropion.HCl as substrate preincubated for 3 mins followed by substrate addition and measured upto 15 mins by LC-MS/MS analysis; format: ADME; conditions: buffer, probe bupropion.HCl, time < 18 min, read-out: Activity
Sequence (P20813 whole entry): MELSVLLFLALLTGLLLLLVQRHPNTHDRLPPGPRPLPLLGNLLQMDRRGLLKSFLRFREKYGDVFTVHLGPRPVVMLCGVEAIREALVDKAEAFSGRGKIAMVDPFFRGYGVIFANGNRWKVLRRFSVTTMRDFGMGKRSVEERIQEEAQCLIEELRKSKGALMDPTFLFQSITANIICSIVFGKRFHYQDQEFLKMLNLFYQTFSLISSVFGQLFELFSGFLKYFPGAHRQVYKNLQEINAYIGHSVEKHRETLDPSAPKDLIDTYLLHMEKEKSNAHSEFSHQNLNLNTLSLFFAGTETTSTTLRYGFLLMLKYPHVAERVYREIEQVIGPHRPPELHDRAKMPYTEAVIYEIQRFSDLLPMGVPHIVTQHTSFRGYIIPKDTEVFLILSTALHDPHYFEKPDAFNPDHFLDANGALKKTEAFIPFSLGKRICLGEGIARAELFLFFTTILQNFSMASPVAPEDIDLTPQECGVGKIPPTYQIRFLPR
endpoint: activity at 0.25 h, 50 µM

// COc1ccc2c(c[n+](C)c3c4cc5c(cc4ccc23)OCO5)c1OC.[Cl-] [CHELERYTHRINE CHLORIDE] : activity at 0.25 h, 50 µM value = > 50%

* * *

molecular target: CYP2E1 (Homo sapiens, UniProt P05181); test: Inhibition of human CYP2E1 assessed as remaining activity at 50 uM using 4-nitrophenol as substrate preincubated for 3 mins followed by substrate addition and measured upto 15 mins by LC-MS/MS analysis; type: ADME; conditions: probe 4-nitrophenol, time < 18 min, read-out: Activity
Sequence (P05181 whole entry): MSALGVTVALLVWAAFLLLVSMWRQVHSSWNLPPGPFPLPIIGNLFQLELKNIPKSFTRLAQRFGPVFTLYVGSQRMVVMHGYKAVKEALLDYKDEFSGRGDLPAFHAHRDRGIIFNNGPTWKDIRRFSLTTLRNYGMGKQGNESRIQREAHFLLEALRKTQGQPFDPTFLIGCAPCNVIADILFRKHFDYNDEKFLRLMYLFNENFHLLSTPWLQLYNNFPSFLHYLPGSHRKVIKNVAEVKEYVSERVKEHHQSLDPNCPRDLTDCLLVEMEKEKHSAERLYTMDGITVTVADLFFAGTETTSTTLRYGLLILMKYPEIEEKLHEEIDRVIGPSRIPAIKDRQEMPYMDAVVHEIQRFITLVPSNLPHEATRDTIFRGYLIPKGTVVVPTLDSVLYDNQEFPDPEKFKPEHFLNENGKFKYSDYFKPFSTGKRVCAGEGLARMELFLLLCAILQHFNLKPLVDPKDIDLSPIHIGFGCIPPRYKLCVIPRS
endpoint: activity at 0.25 h, 50 µM

The compound listed as COc1ccc2c(c[n+](C)c3c4cc5c(cc4ccc23)OCO5)c1OC.[Cl-] [CHELERYTHRINE CHLORIDE] shows activity at 0.25 h, 50 µM equal to > 50%

* * *

target: CYP3A4 (Homo sapiens, UniProt P08684); test: Inhibition of CYP3A4 (unknown origin) assessed as remaining activity at 50 uM incubated for 15 mins in presence of 20 mM NAC; type: ADME; conditions: read-out: Activity
endpoint: activity at 0.25 h, 50 µM (%)
All answers are understood in %, so give the number only.

Observed activity at 0.25 h, 50 µM on CYP3A4 (Homo sapiens, UniProt P08684), entry COc1ccc2c(c[n+](C)c3c4cc5c(cc4ccc23)OCO5)c1OC.[Cl-] [CHELERYTHRINE CHLORIDE] , equals 85.9
